Test system: Naegleria fowleri
Assay: Anti-ameobic activity against Naegleria fowleri Nf69 (ATCC 30215) trophozoites assessed as inhibition of amoeba growth incubated for 48 hrs by CellTiter-Glo assay
Type: functional, organism-based
Conditions: Naegleria fowleri, Nf69 (ATCC 30215), 48 h
pEC50: −log10 of the molar value.
Label Criterion not met if pEC50 falls below 7; label Criterion met in every other case.

CC(C)N1CCC[C@@H]2c3nc4cc(Cl)c(Cl)cc4c(=O)n3CC[C@H]21 (racemic)	Criterion met
COc1cc2nc3n(c(=O)c2cc1Cl)CC[C@H]1[C@H]3CCCN1CC1COC1	Criterion met
CN(C)CCN1CCC[C@@H]2c3nc4cc(Cl)c(Cl)cc4c(=O)n3CC[C@H]21 (racemic)	Criterion not met

Decide: pEC50 of CN1CCC[C@@H]2c3nc4cccc(Cl)c4c(=O)n3CC[C@H]21 (racemic) >= 7?
Criterion not met

In plain terms: is recorded pEC50 at least 7 for CN1CCC[C@H]2c3nc4cc(C(F)(F)F)ccc4c(=O)n3CC[C@H]21 (racemic) ?
Criterion not met

Quick check, pEC50 >= 7? CN1CCC[C@@H]2c3nc4cc(Cl)ccc4c(=O)n3CC[C@H]21 (racemic)
Criterion not met

Textbook exercise: given the entry Cc1cccc2nc3n(c(=O)c12)CC[C@@H]1[C@H]3CCCN1C (racemic) , state whether its pEC50 is greater than or equal to 7.
Criterion not met

Kindly determine if pEC50 recorded for CN1CCC[C@H]2c3nc4cc(Cl)c(C(F)(F)F)cc4c(=O)n3CC[C@H]21 (racemic) is above or exactly 7.
Criterion not met

* * *

Test system: Naegleria fowleri
Test: Anti-ameobic activity against Naegleria fowleri Nf69 (ATCC 30215) trophozoites assessed as inhibition of amoeba growth incubated for 48 hrs by CellTiter-Glo assay
Type: functional, organism-based
Conditions: Naegleria fowleri, Nf69 (ATCC 30215), 48 h
Measure: EC50

COc1cc2nc3n(c(=O)c2cc1C#N)CC[C@@H]1[C@@H]3CCCN1CC1COC1 (racemic)	0.12 µM
O=C(c1ccccc1)N1CCC[C@@H]2c3nc4cc(Cl)c(Cl)cc4c(=O)n3CC[C@H]21 (racemic)	> 10 µM
COc1cc(Cl)cc2c(=O)n3c(nc12)[C@@H]1CCCN(C)[C@@H]1CC3 (racemic)	> 10 µM
CN1CCC[C@@H]2c3nc4cnccc4c(=O)n3CC[C@H]21 (racemic)	> 10 µM

Let's switch to this compound now.
# query: EC50 of entry CC(C)(C)C(=O)N1CCC[C@@H]2c3nc4cc(Cl)c(Cl)cc4c(=O)n3CC[C@H]21 (racemic)
> 10 µM
